# TGT: ACC1 (Homo sapiens, UniProt Q13085)
# METHOD: In vitro ACC1 inhibition assay (ADP-Glo)
# Format: biochemical
# SETUP_CONDITIONS: read-out: ACC1
pIC50: −log10 of the molar value.
List of pIC50 values.

| COMPOUND | pIC50 |
| --- | --- |
| COc1ccccc1[C@H](Cn1c(=O)n(C(C)(C)C(N)=O)c(=O)c2c(C)c(-c3ncco3)sc21)O[C@H]1CC[C@@H](O)CC1 [I-279] | > 7.00 |
| Cc1c(-c2ncco2)sc2c1c(=O)n(C(C)(C)C(=O)O)c(=O)n2C[C@H](OC(C)C)c1ccccc1OC(F)(F)F [I-265] | > 6.00 |
| CCOC(=O)c1sc2c(c1C)c(=O)n(CCO)c(=O)n2CCc1ccccc1Cl [I-20] | 4.70 to 5.30 |
| Cc1c(-c2ncco2)sc2c1c(=O)n(C(C)(C)C(=O)O)c(=O)n2C[C@H](OC1CCOCC1)c1ccccc1C(F)(F)F [I-266] | > 6.00 |
| Cc1c(-c2ncco2)sc2c1c(=O)n(C(C)(C)C(N)=O)c(=O)n2C[C@H](OC1CCOCC1)c1ccccc1OC(F)F [I-274] | > 7.00 |
| Cc1c(-c2ncco2)sc2c1c(=O)n(C(C)(C)C(=O)O)c(=O)n2C[C@H](O[C@H]1CC[C@H](O)CC1)c1ccccc1OC(C)C [I-294] | > 7.00 |
| CCOC(=O)c1sc2c(c1C)c(=O)n(C(C)(C)C(=O)O)c(=O)n2C[C@H](OC(C)CC)c1ccccc1 (stereo in doubt) [I-131] | > 6.00 |
| Cc1c(-c2ncco2)sc2c1c(=O)n(C(C)(C)C(=O)O)c(=O)n2C[C@H](OC1CCCCC1)c1ccccc1 [I-140] | > 7.00 |
| CCOC(=O)c1sc2c(c1C)c(=O)n(CCc1nnn[nH]1)c(=O)n2CCc1ccccc1 [I-61] | > 5.30 |
| Cc1c(-c2ncco2)sc2c1c(=O)n(C(C)(C)C(=O)O)c(=O)n2C[C@H](OC(C)C)c1ccccc1OC(F)F [I-267] | > 7.00 |
| CCc1ccccc1CCn1c(=O)n(C(C)(C)C(N)=O)c(=O)c2c(C)c(-c3ncco3)sc21 [I-134] | > 6.00 |
| CCOC(=O)c1sc2c(c1C)c(=O)n(CCCO)c(=O)n2CCc1ccccc1 [I-19] | > 5.30 |
| CCOC(=O)c1sc2c(c1C)c(=O)n(CC(=O)O)c(=O)n2CCc1c(F)cccc1F [I-33] | 4.70 to 5.30 |
| Cc1c(-c2ncco2)sc2c1c(=O)n(C(C)(C)C(N)=O)c(=O)n2C[C@H](OC(C)C)c1ccccc1OC(F)F [I-268] | > 7.00 |
| COc1ccccc1[C@H](Cn1c(=O)n(C(C)(C)C(=O)N2CCC2)c(=O)c2c(C)c(-c3ncco3)sc21)OCC1CCOCC1 [I-275] | > 7.00 |

* * *

# TGT: ACC2 (Homo sapiens, UniProt O00763)
# Sequence (O00763 whole entry, species assumed): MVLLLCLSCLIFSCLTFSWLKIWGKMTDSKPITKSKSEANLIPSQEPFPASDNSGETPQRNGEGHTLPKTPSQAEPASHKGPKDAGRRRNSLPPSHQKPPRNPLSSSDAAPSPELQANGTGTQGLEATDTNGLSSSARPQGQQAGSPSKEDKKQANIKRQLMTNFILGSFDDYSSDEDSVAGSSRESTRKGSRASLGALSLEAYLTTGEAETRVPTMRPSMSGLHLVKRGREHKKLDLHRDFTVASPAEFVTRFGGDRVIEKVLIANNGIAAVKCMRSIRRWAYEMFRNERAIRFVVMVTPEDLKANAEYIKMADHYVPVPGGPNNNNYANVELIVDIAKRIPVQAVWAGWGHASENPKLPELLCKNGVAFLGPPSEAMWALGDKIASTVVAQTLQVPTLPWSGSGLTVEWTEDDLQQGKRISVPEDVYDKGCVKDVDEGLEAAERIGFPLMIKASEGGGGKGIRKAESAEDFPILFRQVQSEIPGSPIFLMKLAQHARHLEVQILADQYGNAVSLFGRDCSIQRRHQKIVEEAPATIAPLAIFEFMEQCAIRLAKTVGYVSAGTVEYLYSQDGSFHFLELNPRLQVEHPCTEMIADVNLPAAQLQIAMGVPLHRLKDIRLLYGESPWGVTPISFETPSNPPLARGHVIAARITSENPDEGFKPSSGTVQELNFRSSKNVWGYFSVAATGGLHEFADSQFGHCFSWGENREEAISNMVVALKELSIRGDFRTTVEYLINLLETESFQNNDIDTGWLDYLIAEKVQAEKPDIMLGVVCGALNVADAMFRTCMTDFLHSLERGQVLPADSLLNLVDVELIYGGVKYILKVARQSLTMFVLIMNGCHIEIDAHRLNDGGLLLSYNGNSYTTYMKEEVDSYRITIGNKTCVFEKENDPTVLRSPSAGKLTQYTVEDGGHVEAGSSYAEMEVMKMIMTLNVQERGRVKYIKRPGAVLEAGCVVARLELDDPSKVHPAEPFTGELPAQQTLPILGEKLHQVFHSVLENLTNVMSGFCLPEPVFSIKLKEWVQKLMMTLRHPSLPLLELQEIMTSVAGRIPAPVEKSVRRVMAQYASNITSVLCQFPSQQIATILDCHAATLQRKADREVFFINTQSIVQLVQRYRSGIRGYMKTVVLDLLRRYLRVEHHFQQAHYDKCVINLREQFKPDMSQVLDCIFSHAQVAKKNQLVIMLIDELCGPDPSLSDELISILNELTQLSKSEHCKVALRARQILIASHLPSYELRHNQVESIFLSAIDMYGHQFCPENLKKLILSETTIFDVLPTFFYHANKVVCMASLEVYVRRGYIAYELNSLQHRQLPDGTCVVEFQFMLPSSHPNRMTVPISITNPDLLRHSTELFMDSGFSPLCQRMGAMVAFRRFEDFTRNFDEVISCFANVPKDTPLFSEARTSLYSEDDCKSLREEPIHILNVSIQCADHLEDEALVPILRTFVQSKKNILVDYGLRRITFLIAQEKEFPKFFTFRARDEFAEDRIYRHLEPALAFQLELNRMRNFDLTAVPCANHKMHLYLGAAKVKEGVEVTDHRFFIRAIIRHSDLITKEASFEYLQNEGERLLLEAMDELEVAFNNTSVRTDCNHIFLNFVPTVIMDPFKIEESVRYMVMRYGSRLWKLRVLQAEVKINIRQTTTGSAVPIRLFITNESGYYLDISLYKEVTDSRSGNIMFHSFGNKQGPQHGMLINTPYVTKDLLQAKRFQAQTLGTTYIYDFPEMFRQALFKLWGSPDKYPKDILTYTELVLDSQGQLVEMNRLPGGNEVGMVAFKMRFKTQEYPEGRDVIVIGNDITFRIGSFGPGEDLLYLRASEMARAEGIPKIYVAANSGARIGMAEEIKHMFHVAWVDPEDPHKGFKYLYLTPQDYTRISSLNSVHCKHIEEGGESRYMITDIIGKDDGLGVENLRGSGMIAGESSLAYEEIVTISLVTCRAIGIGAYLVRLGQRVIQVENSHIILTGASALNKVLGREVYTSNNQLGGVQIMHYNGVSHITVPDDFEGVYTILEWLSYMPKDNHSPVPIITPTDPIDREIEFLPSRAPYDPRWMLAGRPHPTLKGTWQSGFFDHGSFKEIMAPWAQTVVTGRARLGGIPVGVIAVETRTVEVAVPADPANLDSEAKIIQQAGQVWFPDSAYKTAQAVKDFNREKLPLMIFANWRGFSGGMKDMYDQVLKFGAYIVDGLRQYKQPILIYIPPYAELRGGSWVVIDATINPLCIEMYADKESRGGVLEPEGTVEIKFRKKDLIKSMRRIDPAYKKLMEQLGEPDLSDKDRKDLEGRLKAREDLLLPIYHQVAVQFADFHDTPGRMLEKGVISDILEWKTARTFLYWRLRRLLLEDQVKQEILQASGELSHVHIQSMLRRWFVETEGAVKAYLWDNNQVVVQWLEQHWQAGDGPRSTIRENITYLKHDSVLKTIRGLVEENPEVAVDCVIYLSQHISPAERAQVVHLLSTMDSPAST
# METHOD: In vitro ACC2 inhibition assay (ADP-Glo)
# Format: biochemical
# SETUP_CONDITIONS: read-out: ACC2
pIC50: −log10 of the molar value.

| MOLECULE | pIC50 |
| --- | --- |
| Cc1c(-c2nccs2)sc2c1c(=O)n(C(C)(C)C(=O)O)c(=O)n2C[C@H](OC(C)C)c1ccccc1 [I-141] | > 5.30 |
| CCOC(=O)c1sc2c(c1C)c(=O)n(C(C)(C)C(=O)O)c(=O)n2C[C@@H](O)c1ccccc1 [I-102] | 4.70 to 5.30 |
| CCOC(=O)c1sc2c(c1C)c(=O)n(CC(=O)O)c(=O)n2CC(=O)c1ccccc1 [I-73] | 4.30 to 4.70 |
| O=C(O)Cn1c(=O)c2c3c(sc2n(CCc2ccccc2)c1=O)CCCC3 [I-3] | 4.30 to 4.70 |
| CCCc1ccccc1CCn1c(=O)n(C(C)(C)C(=O)O)c(=O)c2c(C)c(-c3ncco3)sc21 [I-147] | > 6.00 |
| CCOC(=O)c1sc2c(c1C)c(=O)n(C(C)(C)C(=O)O)c(=O)n2C[C@@H](OC(C)(C)C)c1ccccc1 [I-128] | 4.30 to 4.70 |
| CCOC(=O)c1sc2c(c1C)c(=O)n(CCO)c(=O)n2CCc1ccccc1 [I-1] | 4.70 to 5.30 |
| COc1ccccc1[C@H](Cn1c(=O)n(C(C)(C)C(=O)NC(C)C)c(=O)c2c(C)c(-c3ncco3)sc21)OC(C)C [I-242] | > 7.00 |
| CCOC(=O)c1sc2c(c1C)c(=O)n(CC(=O)O)c(=O)n2CCc1ccccc1F [I-32] | > 5.30 |
| COC(=O)c1sc2c(c1C)c(=O)n(CCO)c(=O)n2CCc1c(F)cccc1F [I-25] | < 4.30 |
| CCOC(=O)c1sc2c(c1C)c(=O)n(CC(C)O)c(=O)n2CCc1ccccc1 (stereo not shown) [I-62] | 4.70 to 5.30 |
| Cc1c(-c2ncco2)sc2c1c(=O)n(C(C)(C)C(=O)O)c(=O)n2C[C@H](O[C@H]1CC[C@@](C)(O)CC1)c1ccccc1 [I-168] | > 6.00 |
| Cc1c(-c2ncco2)sc2c1c(=O)n(C(C)(C)C(=O)O)c(=O)n2C[C@H](O[C@H]1CC[C@H](N)CC1)c1ccccc1 [I-166] | > 6.00 |
| CCOCc1sc2c(c1C)c(=O)n(CCO)c(=O)n2CCc1ccccc1 [I-38] | < 4.30 |
| Cc1c(-c2ncco2)sc2c1c(=O)n(C(C)(C)C(=O)O)c(=O)n2C[C@H](OC1CCC(C)(C)CC1)c1ccccc1 [I-148] | > 5.30 |
| Cc1c(-c2ncco2)sc2c1c(=O)n(C(C)(C)C(=O)O)c(=O)n2C[C@H](OC(C)C)c1ccccc1OC(F)F [I-267] | > 7.00 |
